Target: human D3 receptor (Homo sapiens (Human), UniProt P35462)
Sequence (P35462 whole entry): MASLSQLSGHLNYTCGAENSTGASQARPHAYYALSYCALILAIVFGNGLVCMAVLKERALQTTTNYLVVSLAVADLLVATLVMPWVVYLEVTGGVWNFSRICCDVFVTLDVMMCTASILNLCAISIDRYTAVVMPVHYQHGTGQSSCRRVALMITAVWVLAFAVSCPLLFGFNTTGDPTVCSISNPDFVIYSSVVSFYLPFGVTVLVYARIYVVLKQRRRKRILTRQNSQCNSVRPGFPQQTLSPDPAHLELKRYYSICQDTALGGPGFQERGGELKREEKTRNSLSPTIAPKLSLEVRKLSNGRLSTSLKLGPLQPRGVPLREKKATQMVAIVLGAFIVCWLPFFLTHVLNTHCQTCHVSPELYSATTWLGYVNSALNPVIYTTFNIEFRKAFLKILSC
Result type: pKi
Give bare numbers, as −log10 of the molar value.

Briefly, pKi measured for O=C(N[C@H]1CC[C@H](CCN2CCC(c3cccc4c3CCO4)CC2)CC1)C(O)C(F)(F)F (mixture of isomers) : 8.04

Briefly, pKi measured for O=C(N[C@H]1CC[C@H](CCN2CCC(c3cccc4c3CCO4)CC2)CC1)C(F)(F)F : 7.66

Briefly, pKi measured for CS(=O)(=O)c1ccc(C(=O)N[C@H]2CC[C@H](CCN3CCC(c4cccc5c4CCO5)CC3)CC2)s1 : 8.18

Briefly, pKi measured for CC(=O)N[C@H]1CC[C@H](CCN2CCC(c3cccc4c3CCO4)CC2)CC1 : 8.22

Briefly, pKi measured for O=C(N[C@H]1CC[C@H](CCN2CCC(c3cccc4c3CCO4)CC2)CC1)C1(O)CCC1 : 7.56

Record pKi for all entries; do not skip any.
1. O=C(N[C@H]1CC[C@H](CCN2CCC(c3cccc4c3CCO4)CC2)CC1)c1ccc(N2CCCCC2)cc1
2. COCC(=O)N[C@H]1CC[C@H](CCN2CCC(c3cccc4c3CCO4)CC2)CC1

[A]
1. 7.14
2. 7.64

====

Target: human D2 receptor (Homo sapiens (Human), UniProt P14416)
Sequence (P14416 whole entry): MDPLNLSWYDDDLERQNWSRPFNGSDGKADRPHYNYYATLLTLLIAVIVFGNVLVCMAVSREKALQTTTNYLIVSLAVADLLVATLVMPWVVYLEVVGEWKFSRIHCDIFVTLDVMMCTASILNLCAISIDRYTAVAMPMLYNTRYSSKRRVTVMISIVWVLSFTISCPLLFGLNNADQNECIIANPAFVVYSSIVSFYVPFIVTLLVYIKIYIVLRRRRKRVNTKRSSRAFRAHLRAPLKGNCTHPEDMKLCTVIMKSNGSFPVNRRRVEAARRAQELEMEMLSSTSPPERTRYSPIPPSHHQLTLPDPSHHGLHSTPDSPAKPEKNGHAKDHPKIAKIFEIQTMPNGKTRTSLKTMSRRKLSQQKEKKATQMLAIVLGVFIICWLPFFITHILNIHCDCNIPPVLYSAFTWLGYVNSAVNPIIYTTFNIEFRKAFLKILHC
Assay details: Radioligand binding ([3H]-spiperone) to cloned receptors expressed in HEK-293 EBNA cells
Condition info: HEK293 EBNA cell membranes expressing human D2
Result type: pKi
One number for each entry, as −log10 of the molar value.

Record pKi for all entries; do not skip any.
1. O=C(N[C@H]1CC[C@H](CCN2CCC(c3cccc4c3CCO4)CC2)CC1)C1CCOC1 (mixture of isomers) [Example 52]
2. Cc1cc(C(=O)N[C@H]2CC[C@H](CCN3CCC(c4cccc5c4CCO5)CC3)CC2)on1 [Example 41]
3. O=C(N[C@H]1CC[C@H](CCN2CCC(c3cccc4c3CCO4)CC2)CC1)c1ccc(-c2ccccc2)cc1 [Example 91]

[A]
1. 6.87
2. 6.91
3. 6.30

====

# note: exactly 200 °C is not below, so it is no (0); use yes (1) for melting point strictly under it

Example cases with answers are listed next.
[Q] Consider CC(C)(C)C(=O)N[C@H]1CC[C@H](CCN2CCC(c3cccc4c3CCO4)CC2)CC1 . Does its melting point lie strictly below 200 °C?
[A] yes (1)

[Q] Consider O=C(C[C@@H]1CCCO1)N[C@H]1CC[C@H](CCN2CCC(c3cccc4c3CCO4)CC2)CC1 . Does its melting point lie strictly below 200 °C?
[A] yes (1)

[Q] Consider CCCCC(=O)N[C@H]1CC[C@H](CCN2CCC(c3cccc4c3CCO4)CC2)CC1 . Does its melting point lie strictly below 200 °C?
[A] yes (1)

[Q] Consider O=C(N[C@H]1CC[C@H](CCN2CCC(c3cccc4c3CCO4)CC2)CC1)c1ccc(-n2cccn2)cc1 . Does its melting point lie strictly below 200 °C?
[A] no (0)

[Q] Consider CN(C)C(=O)N[C@H]1CC[C@H](CCN2CCC(c3cccc4c3CCO4)CC2)CC1 . Does its melting point lie strictly below 200 °C?
[A] no (0)

---
[Q] Consider O=C(N[C@H]1CC[C@H](CCN2CCC(c3cccc4c3CCO4)CC2)CC1)c1ccc(-n2cccc2)cc1 . Does its melting point lie strictly below 200 °C?
[A] no (0)

[Q] Consider O=C(N[C@H]1CC[C@H](CCN2CCC(c3cccc4c3CCO4)CC2)CC1)C1CC1 . Does its melting point lie strictly below 200 °C?
[A] no (0)

[Q] Consider CS(=O)(=O)CC(=O)N[C@H]1CC[C@H](CCN2CCC(c3cccc4c3CCO4)CC2)CC1 . Does its melting point lie strictly below 200 °C?
[A] no (0)

[Q] Consider COCCC(=O)N[C@H]1CC[C@H](CCN2CCC(c3cccc4occc34)CC2)CC1 . Does its melting point lie strictly below 200 °C?
[A] yes (1)

[Q] Consider CCC(=O)N[C@H]1CC[C@H](CCN2CCC(c3cccc4occc34)CC2)CC1 . Does its melting point lie strictly below 200 °C?
[A] yes (1)

[Q] Consider O=C(N[C@H]1CC[C@H](CCN2CCC(c3cccc4c3CCO4)CC2)CC1)C1CCOCC1 . Does its melting point lie strictly below 200 °C?
[A] no (0)

meta.source: patent US8877778B2
